- EXPERIMENT DESCRIPTION: physchem
- EXPERIMENTAL CONDITIONS: 1:1 DMSO/EtOH (v/v), 60 °C, organic solvent or mixture, thermodynamic from solid
MEASURED METRIC: solubility

I would be grateful if you could share the reported solubility for `OC[C@@H](O)[C@@H](O)[C@H](O)[C@@H](O)CO` .
> 102 mg/mL

====

- EXPERIMENT DESCRIPTION: physchem
- EXPERIMENTAL CONDITIONS: 1:3 EtOAc/EtOH (v/v), 60 °C, organic solvent or mixture, thermodynamic from solid
MEASURED METRIC: solubility
Give the number first and the unit second.

I would be grateful if you could share the reported solubility for `OC[C@@H](O)[C@@H](O)[C@H](O)[C@@H](O)CO` .
10000 µg/mL
